# protocol text: Single ascending oral dose pharmacokinetics (part 1, plasma and urine, fasted)
# Type: in vivo, human
# measurement context: human, plasma, oral, cohort/dose E/1000 mg, single dose, geometric mean (%CV)
quantity measured: AUC(0-inf) (µg·h/mL)
Write down the numeric answer in µg·h/mL and omit the unit.

Query string: Kindly indicate its recorded AUC(0-inf). Item: Cn1cnc(Cn2c(=O)[nH]/c(=N\c3cc4cn(C)nc4cc3Cl)n(Cc3cc(F)c(F)cc3F)c2=O)n1
Result string: 3370

###

# protocol text: Single ascending oral dose pharmacokinetics (part 1, plasma and urine, fasted)
# Type: in vivo, human
# measurement context: human, plasma, oral, cohort/dose E/1000 mg, single dose, geometric mean (%CV)
quantity measured: MRT (h)
Write down the numeric answer in h and omit the unit.

Query string: Kindly indicate its recorded MRT. Item: Cn1cnc(Cn2c(=O)[nH]/c(=N\c3cc4cn(C)nc4cc3Cl)n(Cc3cc(F)c(F)cc3F)c2=O)n1
Result string: 70.3
